Test system: Endogenous Huntingtin Protein
METHOD NOTES: Endogenous Huntingtin Protein Assay (Meso Scale Discovery ELISA-based electrochemiluminescence)
Assay type: cell-based
CONDITION SUMMARY: MSD electrochemiluminescence, Table 1
Assignment: determine reported IC50 for the given compounds.

What IC50 value was documented for this compound, Cc1cn2cc(-c3cc(F)c4nc(C5CCNCC5)nnc4c3)cc(F)c2n1 [Compound 58] ? ≤ 100 nM

Report IC50 for CCN1CCCC(c2cc3c(F)cc(-c4cc(C)c5nc(C)cn5n4)cc3nn2)CC1 (centres unmarked) [Compound 189] please. ≤ 100 nM

Consider the compound Cc1cn2cc(-c3cc4c(F)cc(C5CCNCC5)cc4nn3)cc(F)c2n1 [Compound 128] and give its measured IC50. ≤ 100 nM

// IC50 lookup, key: Cc1cc(-c2cc(F)c3cc(C4=CCNCC4)nnc3c2)cc2cn(C)nc12 [Compound 55] ≤ 100 nM

Would you kindly share the measured IC50 for Cc1cc(-c2cc3cnc(C4CCNCC4)nc3cc2F)cc2cn(C)nc12 [Compound 39] ? 1000 to 3000 nM

Could you share which IC50 value was measured for Cn1cc2cc(-c3cc(F)c4cc(C5CCNCC5)nnc4c3)ccc2n1 [Compound 95] ? ≤ 100 nM

Could you tell me which IC50 is on file for Cc1cn2cc(-c3nnc4cc(C5CCNCC5)ccc4n3)cc2c(C)n1 [Compound 28] ? 1000 to 3000 nM

Which IC50 is reported for this compound? Cc1cn2nc(-c3cc(F)c4cc(C5CCNCC5)nnc4c3)cc(OCCCN(C)C)c2n1 [Compound 139] ≤ 100 nM

Fill in the blank: the reported IC50 of Cc1cn2nc(-c3cc(F)c4cc(C5C[C@H](C)N[C@@H](C)C5)nnc4c3)cc(C)c2n1 (some centres unmarked) [Compound 87] is ____. ≤ 100 nM

Any idea what its IC50 is? The compound is CCc1cc(-c2cc(F)c3cc(C4CCNCC4)nnc3c2)nn2cc(C)nc12 [Compound 105] ≤ 100 nM

State the recorded IC50 for this entry: Cc1cn2nc(-c3nnc4cc(C5CCNCC5)cc(F)c4n3)cc(C)c2n1 [Compound 57] ≤ 100 nM

Given the compound Cc1cn2nc(-c3cc(F)c4cc(C5CCCNCC5)nnc4c3)cc(C)c2n1 (centres unmarked) [Compound 129] , what is its reported IC50? ≤ 100 nM

Consider the compound shown here: CCc1cc(-c2cc(F)c3cc(C4CCN(CCO)CC4)nnc3c2)nn2cc(C)nc12 [Compound 123] What is its recorded IC50? ≤ 100 nM

Which IC50 value belongs to Cn1cc2cc(-c3cc4c(F)cc(C5=CCNCC5)cc4nn3)cc(C#N)c2n1 [Compound 175] ? ≤ 100 nM

Can you look up the measured IC50 of Cc1cn2nc(-c3cc(F)c4nc(C5CCNCC5)ccc4c3)cc(C)c2n1 [Compound 45] for me? ≤ 100 nM

What measured IC50 goes with Cc1cc2oc(-c3cc(F)c4cc(C5CCN(CCO)CC5)nnc4c3)nc2c(C)n1 [Compound 213] ? 100 to 500 nM

Can you share its IC50? I mean this compound: Cn1cc2cc(-c3cc(F)c4cc(C5CCNCC5)nnc4c3)c(F)cc2n1 [Compound 97] 500 to 1000 nM

Provenance of the data: patent US12384789B2
